target: NAMPT (Homo sapiens); test: Time-Resolved Fluorescence Resonance Energy Transfer (TR-FRET) Binding Assay of NAMPT; conditions: 6.8 nM NAMPT, 200 nM probe, equilibrated 3 hours, no substrates
Sequence (P43490 whole entry): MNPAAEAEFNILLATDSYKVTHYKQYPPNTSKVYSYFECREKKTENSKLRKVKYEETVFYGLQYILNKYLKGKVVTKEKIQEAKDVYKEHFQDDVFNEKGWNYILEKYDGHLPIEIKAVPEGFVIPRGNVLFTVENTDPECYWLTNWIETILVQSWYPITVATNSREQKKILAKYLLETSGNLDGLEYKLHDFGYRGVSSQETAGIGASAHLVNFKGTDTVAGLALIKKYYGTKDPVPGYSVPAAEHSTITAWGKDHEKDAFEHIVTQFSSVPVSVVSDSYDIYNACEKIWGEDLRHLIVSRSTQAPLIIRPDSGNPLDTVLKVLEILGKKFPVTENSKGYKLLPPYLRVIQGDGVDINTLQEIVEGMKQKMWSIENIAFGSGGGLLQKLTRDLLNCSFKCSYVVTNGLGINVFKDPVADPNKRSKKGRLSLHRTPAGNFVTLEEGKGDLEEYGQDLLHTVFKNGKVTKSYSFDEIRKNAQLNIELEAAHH
Recorded endpoint: IC50 (µM)

Some entries whose results are on file:
Compound	IC50, µM
CC(=O)N1CCC(c2ccc(NC(=O)N3CC(c4cccnc4)C3)cc2)C1 (centres unmarked)	0.0767
O=C(CC1CCCC1)N1CC[C@@H](Oc2ccc(NC(=O)N3CC(c4cccnc4)C3)cc2)C1	0.0526
CC(C)(O)C(=O)N1CCC(c2ccc(NC(=O)N3CC(c4cccnc4Cl)C3)cc2)CC1	0.00862

a: CC(C)CCN1CC(c2ccc(NC(=O)N3CC(c4cccnc4)C3)cc2)C1
b: CC(C)CC(=O)N1CCC(c2ccc(NC(=O)N3CC(c4cccnc4)C3)cc2)C1 (centres unmarked)
c: CC1(C(=O)N2CCC(c3ccc(NC(=O)N4CC(c5cccnc5)C4)cc3)C2)CC1 (centres unmarked)
d: O=C(CC1CC1)N1CC[C@H](Oc2ccc(NC(=O)N3CC(c4cccnc4)C3)cc2)C1
e: O=C(Nc1ccc(C2CN(C(=O)c3ccccc3)C2)cc1)N1CC(c2cccnc2)C1
Query block: Please give the order of these compounds when sorted by IC50, largest value leading. # the answer lists labels in the order requested
Result block: a, d, b, c, e

====

molecular target: NAMPT (Homo sapiens); assay: Time-Resolved Fluorescence Resonance Energy Transfer (TR-FRET) Binding Assay of NAMPT; settings: 6.8 nM NAMPT, 200 nM probe, equilibrated 3 hours, no substrates
Recorded endpoint: IC50 (nM)

Compound	Target of assay	IC50, nM
Cc1ccc(C2CN(C(=O)Nc3ccc(OC4CCN(C(=O)CC5CCOCC5)CC4)cc3)C2)cn1 [Example 8]	NAMPT (Homo sapiens)	617
O=C(CC1CCOCC1)N1CC[C@H](Oc2ccc(NC(=O)N3CC(c4cccnc4)C3)cc2)C1 [Example 88]	NAMPT (Homo sapiens)	269
O=C(Nc1ccc(C2CCN(C(=O)c3ccsc3)CC2)cc1)N1CC(c2cccnc2)C1 [Example 185]	NAMPT (Homo sapiens)	3.23
CC(C)(O)C(=O)N1CCC(c2ccc(NC(=O)N3CC(c4cccnc4)C3)cc2)CC1 [Example 51]	NAMPT (Homo sapiens)	17.2
CC[C@H](C)C(=O)N1CC(Oc2ccc(NC(=O)N3CC(c4cccnc4)C3)cc2)C1 [Example 1]	NAMPT (Homo sapiens)	24.9
CN1CCN(CC(=O)N2CC(Oc3ccc(NC(=O)N4CC(c5cccnc5)C4)cc3)C2)CC1 [Example 149]	NAMPT (Homo sapiens)	22.1
O=C(CC1CCOCC1)N1CCC(Oc2ccc(NC(=O)N3CC(c4cncc(F)c4)C3)cc2)CC1 [Example 3]	NAMPT (Homo sapiens)	1220
CC1(C(=O)N2CC(Oc3ccc(NC(=O)N4CC(c5cccnc5)C4)cc3)C2)CC1 [Example 135]	NAMPT (Homo sapiens)	28.1

P: CC(C)C(=O)N1CC(Oc2ccc(NC(=O)N3CC(c4cccnc4)C3)cc2)C1 [Example 127]
Q: CCC(C)(C)C(=O)N1CCC(c2ccc(NC(=O)N3CC(c4cccnc4)C3)cc2)C1 (stereo not shown) [Example 290]
R: O=C(CCN1CCCCC1)N1CC[C@@H](Oc2ccc(NC(=O)N3CC(c4cccnc4)C3)cc2)C1 [Example 327]
Query block: Order the entries by their reported IC50, beginning at the minimum. # the answer lists labels in the order requested
Result block: Q, P, R
